- protocol-notes: small-molecule microarray binders of probe aEGFR, primary screen, biochemical, biotinylated probe, 635/667 nm fluorescence (AID 1097);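 also: probe is a biotinylated anti-EGFR antibody binding compounds printed on slides; score combines fluorescence near 667 nm and signal to noise of each spot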
- recorded-conditions: higher = more signal
Response key: y means composite z-score >= -0.006; n means composite z-score < -0.006.

{"compound": "CCCNC(=O)[C@@H]1c2ccccc2C(=O)N(Cc2ccccc2Cl)[C@H]1c1ccc(CO)cc1", "qualitative-label": "y"}
{"compound": "CO[C@@H]1COC(=O)[C@@H]2CCCN2C(=O)[C@@H](C)COC(=O)[C@H](COCc2ccccc2)NC(=O)CC=C[C@H]1C", "qualitative-label": "n"}
{"compound": "C#CCCCON=C1C[C@@H](O)[C@@H](O)[C@@H]2[C@@H]3C(=O)N(Cc4ccccc4)C(=O)[C@@H]3CC[C@H]12", "qualitative-label": "n"}
{"compound": "C=CC[C@@H]1C=C[C@H](ON=C2c3cc(OC)ccc3O[C@H](c3cccc(OC)c3)[C@H]2O)[C@@H](CO)O1", "qualitative-label": "n"}
{"compound": "CN1C(=O)C2C(C1=O)C1C=C(CCCO)C2C(c2ccc(CN3CCCC3)cc2)N1C (stereo not given)", "qualitative-label": "n"}
{"compound": "CC(C)NC(=O)[C@@H]1c2ccccc2C(=O)N(CC23CC4CC(CC(C4)C2)C3)[C@H]1c1ccc(CO)cc1", "qualitative-label": "y"}
{"compound": "C[C@@H]1CCC2C(=O)N(Cc3ccccc3)C[C@@H](O)CN2[C@H]1c1ccc(Br)cc1 (stereo not given in full)", "qualitative-label": "n"}
{"compound": "COCCCNC(=O)[C@@]1(Sc2ccc(C)cc2)CC(=O)N(Cc2ccccc2)[C@@H]1c1ccc(CO)cc1I", "qualitative-label": "y"}
{"compound": "CO[C@@H]1COC(=O)CC=C[C@@H](C)[C@@H]2C=C[C@H](O)[C@@H](COC(=O)[C@H](C)NC(=O)CC=C[C@H]1C)O2", "qualitative-label": "y"}
{"compound": "CCCNC(=O)OC[C@H]1O[C@H](CCON=CC[C@@H]2C=C[C@H](OC(C)=O)[C@@H](COC(C)=O)O2)C=C[C@@H]1Oc1ccc(OC)cc1", "qualitative-label": "y"}
{"compound": "COc1ccc(O[C@H]2C=C[C@@H](c3ccccc3)O[C@@H]2COC(=O)N2CCCCC2)cc1", "qualitative-label": "n"}
{"compound": "COC(=O)[C@@H]1CCCN1C(=O)[C@@H](C)CO", "qualitative-label": "y"}
{"compound": "CCN1C(=O)[C@H]2[C@H]3[C@H](O)[C@H](O)CC(=NO[C@@H]4O[C@H](CO)[C@@H](O)[C@H](O)[C@H]4O)[C@@H]3CC[C@H]2C1=O", "qualitative-label": "n"}
{"compound": "[N-]=[N+]=Nc1ccccc1C[C@@]1(C(N)=O)N=C(c2ccc(OCCCO)cc2)O[C@@H]1c1ccccc1", "qualitative-label": "n"}
{"compound": "COc1ccc(O[C@H]2C=C[C@@H](c3ccccc3)O[C@@H]2COC(=O)CCC(C)=NOCC[C@@H]2C=C[C@H](OC(C)=O)[C@@H](COC(C)=O)O2)cc1", "qualitative-label": "n"}
{"compound": "COCCCNC(=O)[C@@]1(C)c2ccccc2C(=O)N(Cc2ccc(OC(F)(F)F)cc2)[C@H]1c1ccc(CO)cc1", "qualitative-label": "y"}
{"compound": "CCOC(=O)C1=CCC(c2cc3ccccc3[nH]2)NC1 (stereo not given)", "qualitative-label": "n"}
{"compound": "COc1ccc(-c2ccc3c(n2)CCCN3CC(O)CN2CCCc3nc(C)c(C)cc32)cc1 (stereo not given)", "qualitative-label": "y"}
{"compound": "O=C1[C@H]2[C@H]3[C@H](O)[C@H](O)CC(=NO[C@@H]4O[C@H](CO)[C@@H](O)[C@H](O)[C@H]4O)[C@@H]3CC[C@H]2C(=O)N1c1ccc(F)cc1F", "qualitative-label": "n"}
{"compound": "C=CCNC(=O)[C@H]1[C@@H]2C(=O)O[C@@H](c3ccccc3)[C@@H](c3ccccc3)N2[C@@H](c2ccc(O)cc2)[C@]12C(=O)N(C(=O)OCCOC)c1ccc(C#CC3=CCCCC3)cc12", "qualitative-label": "n"}
{"compound": "C=CC[C@@H]1C=C[C@H](ON=C[C@@H](OC)[C@H](C)C=CCC(=O)OC)[C@@H](CO)O1", "qualitative-label": "y"}
{"compound": "CCOC(=O)[C@H](CC(C)C)NC(=O)CCC1CC(OC(=O)NCc2cccc3ccccc23)CC2(CCCC(COC(=O)NCCc3ccccc3OC)O2)O1 (stereo not given in full)", "qualitative-label": "n"}
{"compound": "COC(=O)CC=C[C@H](C)[C@@H](OCc1ccccc1Br)C(C)C", "qualitative-label": "n"}
{"compound": "CN(C)CCCNC(=O)[C@@H]1c2ccccc2C(=O)N(Cc2ccccc2)[C@H]1c1ccc(CO)cc1", "qualitative-label": "y"}
{"compound": "CC(C)=NOCc1ccc(-c2cc(-c3ccccc3)no2)cc1", "qualitative-label": "n"}
{"compound": "Cn1c(=O)n2n(c1=O)[C@H]1[C@H](O)[C@@H]3O[C@@H]3C(=NOC[C@@H](O)COCc3ccco3)[C@H]1CC2", "qualitative-label": "y"}
{"compound": "COC(=O)[C@@]1(Cc2ccc(OC)cc2)[C@H]2c3cc(C(=O)N4CCCC4)n(Cc4cc(F)c(F)c(F)c4)c3C[C@H]2CN1C(=O)c1ccccc1", "qualitative-label": "y"}
{"compound": "COCCOC(=O)N1C(=O)[C@@]2(c3cc(C#CC4(O)CCCCCC4)ccc31)[C@H](C(=O)N1CCN(c3ncccn3)CC1)[C@H]1C(=O)O[C@H](c3ccccc3)[C@H](c3ccccc3)N1[C@@H]2c1ccc(OCCO)cc1", "qualitative-label": "y"}
{"compound": "CCc1cccc(NC(=O)O[C@H]2[C@H](OC(=O)Nc3ccc4c(c3)OCO4)[C@@H](OC(=O)Nc3ccc4c(c3)OCO4)[C@@H](OC)O[C@@H]2CO)c1", "qualitative-label": "n"}
{"compound": "C#C[C@@H](CC)O[Si](C#Cc1ccc(Oc2ccccc2)cc1)(C(C)C)C(C)C", "qualitative-label": "y"}
